Tested on: MS2 coat protein
ASSAY_SUMMARY: apparent KD of MS2 coat protein; designed switch direction (-1 OFF switch, 1 ON switch): 1; higher = weaker reporter binding
EXPERIMENTAL_CONDITIONS: input ligand: FMN 200 uM
OBSERVABLE: apparent KD of MS2 coat protein (µM)

INSERT INTO results (record_sequence, unit_annotation, obs_value) VALUES
  ('GUGAGAUGUUCAGGAUAUUUCAGGAUAGUUAAUCCAAGGCCAUCACAUGAGGAUCACCCAUGUCGAGAGAAGGGAAUUCUCAGG [Eternabot solution 43] (Eterna round: R96, puzzle: Same State NG 2)', 'µM', 0.378),
  ('CGGGACAGACCCAACAUGAGGAUCACCCAUGUCCUCGCAGGUCAGGAUAUUAUUAGGAUCACCAGUGAGAAGGGACGGUGAACC (Eterna round: R96, puzzle: Same State NG 3)', 'µM', 0.47),
  ('CCAACAUACAAUUUAAGAUCACAUGAGGAUCACCCAUGUAUGCAGGAUAUCAGCUCGAAUAGAGCUGAGAAGGGCAAUUUAAUU [SSNG3/1-A1] (Eterna round: R96, puzzle: Same State NG 3)', 'µM', 0.0947);

====

System: MS2 coat protein
ASSAY_SUMMARY: apparent KD of MS2 coat protein; higher = weaker reporter binding
EXPERIMENTAL_CONDITIONS: Eterna round: R107; input ligand: arginine 13.2 mM
sequences and their reported apparent KD of MS2 coat protein
OBSERVABLE: apparent KD of MS2 coat protein

INSERT INTO measurements (record_sequence, obs_value) VALUES
  ('ACAUGAGGAUCACCCAUGUACAUGAGGGAAGGAGCGGUACAUGUGCCAGGUAGGUCGCCCAUGAGCAUCAGCCAUGUACAUCAGC [l,ommullin]', '0.0421 µM'),
  ('AAUAAGAUGAGGAUCACCCAUCUAAAAGAUACCAGAGUGAUGAUCCUCCCUUGGCAGCUUAACGCUGAUUGAUUACAAUCAGCGA', '0.0217 µM'),
  ('UCAGAUGAGGCGGCCGCCACUCGCGGAUAACGAUAGAUUAACAUGAGGAUCACCCAUGUGUCAUGGAGGACCGGGCCCAUGACAU [kjmullin]', '0.0238 µM'),
  ('ACAUGAGGAUCACCCAUGUACGAGUCGGAAGGAGCGGCAAUUAAGCCAGGUAGGUCGCCGGCAGAGAGUGUCAUUGUAAGUAUGA [Same State - Arginine A / A]', '0.0142 µM'),
  ('GGCACCAGGAGAAGGAGCGUGAAGACAUGAGGAUCACCCAUGUAGAGGCCCGUACCGGGUUCGCAGGUAGGUCGCUCCUGGUGCC [#1 Same State - Arginine B Attempt #14 (HarryS)]', '0.0192 µM'),
  ('CUGGACAUGAGGAUCACCCAUGUAAAUCCUCGAGGACCGGUACGGCCGCCACUCGAACGAGUGGCGCGCGCGCGCGCGCGCGCGC [aIa]', '0.0235 µM'),
  ('AUAUAUACAUGAGGAUCACCCAUGUUAUUUCGAGGACCGGUACGGCCGCCACUCGAUAGAGUAGAAGUAACAUGUGUUAGUUGAU [JR_SSTryptoA_Sub014]', '0.0163 µM'),
  ('GGAUAGGACACGGCCGCCACUGCCUAGGAUACUAGAAACAUUUCCUCACAUGAGGAUCACCCAUGUAGGACCGGGUGUCCUAUCG', '0.0749 µM'),
  ('AGGACCAGGAUCCUCAUGUAACUGGUCCAACGAGGACCGGUACGGCCGCCACUCGAAUAAACAUGAGGAUCACCCAUGUAAUAAU [T''''-M-T''-T-MS2]', '0.0369 µM'),
  ('UCGUUUGAGGCGGCCGCCACUGGUCUCAUGGUCAACAUGAGGAUCACCCAUGUAUCUUAGUUAAGCAGGACCGGGCCUCGAGCGA [#18 Exclusion Tryptophan B]', '0.0389 µM'),
  ('UAUAUAUAUCACGAACUGUGGUGUAUGUCUCGAGGACCGGUACGGCCGCCACUCGCGCGGCCUCACAUGAGGAUCACCCAUGUUG [XTryp A #6]', '0.0279 µM'),
  ('UUUGAUAGAACAGAUACCAGCGUGUUAUAAAACAUGAGGAUCACCCAUGUAGUGAUCAAGCGCCCUUGGCAGCUGGUUUGUUAGG [7.I]', '0.0764 µM');

====

Tested on: MS2 coat protein
ASSAY_SUMMARY: apparent KD of MS2 coat protein; designed switch direction (-1 OFF switch, 1 ON switch): -1; higher = weaker reporter binding
EXPERIMENTAL_CONDITIONS: input ligand: none
Label Criterion met when apparent KD of MS2 coat protein >= 80 nM; otherwise Criterion not met.

INSERT INTO measurements (record_sequence, class_name) VALUES
  ('CUCGAGUUAGGAUAUGGCGGCGACUGUGUUCGCAGAUCGCACCAGAAGGAACAUGAGGAUCACCCAUGUGACGG [Eternabot (L1) Solution 42] (Eterna round: R97, puzzle: Exclusion 4)', 'Criterion met'),
  ('AACCGCGGAGGAUAUACACGGUGAUACUGAACUCCGGCACGACAUGAGGAUCACCCAUGUAGAAGGCCGAAUAU [EX2 B.13] (Eterna round: R97, puzzle: Exclusion 2)', 'Criterion not met'),
  ('GUUUGACAUGAGGAUCACCCAUGUAAGGAUAUACGAGUAGAUACUAGAUAGUUAGUAUGUAGAAGGUACGUGUU [EX1 #64] (Eterna round: R97, puzzle: Exclusion 1)', 'Criterion not met'),
  ('GAACUGAGGCUUUGCUUUAGUCGUACAUGAGGAUCACCCAUGUAGGAUAUGGUAGGCUUUGCUUACCAGAAGGACAGAGUGAUC [JL EXNG3 1.21] (Eterna round: R96, puzzle: Exclusion NG 3)', 'Criterion met'),
  ('CGGAGUUAGGAGGAUAUGACGAACGCACGUCGUUCAGAAGGCCUAACAUGAGGAUCACCCAUGUGCUUAACACG [Eternabot (L2) Solution 59] (Eterna round: R97, puzzle: Exclusion 6)', 'Criterion not met'),
  ('UCACAGGCUGUGGGUGGUGACAUGAGGAUCACCCAUGUUUUGCUCGUCUUGUGCCGGGCCCGGCGCCCGGGCCCGGC [-41.8, -69.2, A 10%] (Eterna round: R97, puzzle: Sensor, turn-off variant 1)', 'Criterion met'),
  ('ACAUGAGGAUCACCCAUGUAAUCAUGAUGGCUGAUGUAGAGCUAGGAUAUGAGUGGCUUUCUAUCUCAGAAGGAGCAAGACUGG [Deportation 40 - Jieux - Exclusion NG 3] (Eterna round: R96, puzzle: Exclusion NG 3)', 'Criterion not met'),
  ('UCAUGUCCAGAGGAUAUGUAGCGGGAGACCGCAACAGAAGGCUGGACAUGAGGAUCACCCAUGUGCGCCUUCAA [jl-ex3-4.28 ViennaUCT mod] (Eterna round: R97, puzzle: Exclusion 6)', 'Criterion met');

====

Tested on: MS2 coat protein
ASSAY_SUMMARY: apparent KD of MS2 coat protein; designed switch direction (-1 OFF switch, 1 ON switch): -1; higher = weaker reporter binding
EXPERIMENTAL_CONDITIONS: Eterna round: R95; input ligand: microRNA oligo, concentration not stated
The class of a record is decided solely by its measured apparent KD of MS2 coat protein; consult lower range = under 30 nM, middle range = from 30 nM up to 40 nM, upper range = 40 nM and over

INSERT INTO assay_data (record_sequence, class_name) VALUES
  ('CAUACACAUGAGGAUCACCCAUGUGAGGAUAUGAAUACGUUGUCCGUAGGCGACGUGAUCAGAAGGCGCUUGGU [Mat - Mod of JL D100] (puzzle: Exclusion 1)', 'upper range'),
  ('CCGGAAUAGCAGGAUAUAGGAGUCGAUAGACACCUAGAAGGGCUGACAUGAGGAUCACCCAUGUGUCCUACCGG [Fiskers Ex 6 - 83] (puzzle: Exclusion 6)', 'upper range'),
  ('UUUGUCUGUGUGAGGAUAUACUUUGUUUGGUCGUUGUAGAAGGCACAUGAGGAUCACCCAUGUAUUUUGUUGUG [JR_BME4_Sub015] (puzzle: Brourd''s mod of Exclusion 4)', 'lower range'),
  ('GAAAAGCUAGGAUAUACAUGAGGAUCACCCAUGUAAGGUCGCUUCUUAUAUAGGGCAUGUAGAAGGAGCAAAGA [Eneriner] (puzzle: Exclusion 3)', 'middle range'),
  ('GGUUGUUUUUUCCUUUCUUACAUGAGGAUCACCCAUGUUUCUUGUCGUGCUCGCGUUGCUCGUCUGUCUGUCUGUUG [salish99_TOv1_r3_074] (puzzle: Sensor v3, turn-off variant 1)', 'middle range'),
  ('CUUUUGUGAGGAUAUCAGUAGUAAAAAAAUAAAUUUACUACUGAGAAGGCACAUGAGGAUCACCCAUGUUCCUC [salish99_ex4_r3_025] (puzzle: Exclusion 4)', 'upper range'),
  ('CCGCUAAUAGGAUAUACAUGAGGAUCACCCAUGUCACUCUUCAUUGGUGUCUCUUCAAGUAGAAGGGUUGCUCA [Atisdi] (puzzle: Exclusion 3)', 'lower range'),
  ('GCUUGUAGAGGAUAUACAAGGGCCUUAGCGGAUAACACCGCACAUGAGGAUCACCCAUGUAGAAGGCUACCACC [Veorlace] (puzzle: Exclusion 2)', 'lower range'),
  ('GUCCAGUUAGGAUAUCAAUGCCACAACAUGAGGAUCACCCAUGUUUGGGUCCCUCACCAAUGAGAAGGAACGGGAC [Esteenedso] (puzzle: Exclusion 5)', 'middle range'),
  ('UUUAAUUUUUUUUUUUUACAAGCUUUUUGCUCGUCUUAUACAUGAGGAUCACCCAUGUGGAUGGGAGGUAAAUUAUC [JMF 74] (puzzle: Sensor v3, turn-off variant 2)', 'upper range');
